Values from patent US5250542A

Molecular target: opioid receptor (Mus musculus, UniProt P42866)
Construct: Five CF-1 male mice (Charles River, Portage, Mich.); from tissue; host or cells: living CF-1 male mice (in vivo test; endogenous receptor)
Sequence (P42866 whole entry): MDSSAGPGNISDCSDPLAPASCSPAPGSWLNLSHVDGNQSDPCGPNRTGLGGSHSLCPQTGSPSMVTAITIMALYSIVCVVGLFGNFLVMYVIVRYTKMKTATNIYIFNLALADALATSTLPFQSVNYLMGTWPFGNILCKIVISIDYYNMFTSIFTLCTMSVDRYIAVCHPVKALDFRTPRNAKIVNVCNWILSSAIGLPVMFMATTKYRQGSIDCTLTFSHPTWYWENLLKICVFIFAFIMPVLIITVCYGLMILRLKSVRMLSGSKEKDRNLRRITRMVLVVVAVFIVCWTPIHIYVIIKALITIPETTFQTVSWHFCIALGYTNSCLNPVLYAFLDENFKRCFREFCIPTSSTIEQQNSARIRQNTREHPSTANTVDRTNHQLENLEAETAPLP
Experiment: mouse writhing analgesis test: block of morphine-induced analgesia
Format: in vivo, CF-1 male mice
Parameters: unit not given here
Details: dose of antagonist that reduced the inhibition of writhing produced by 1.25 mg/kg morphine sulfate to 50%; subcutaneous, 20 min before acetic acid
Structures can show the parent of a compound that is named as a salt.
# AD50 annotations

molecule	study-target	value-operator	AD50
CCNC(=O)CNC(=O)C(CCN1CC[C@@](C)(c2cccc(O)c2)[C@@H](C)C1)C1CCCCC1 (relative stereo) [Example 22, hydrochloride]	opioid receptor (Mus musculus, UniProt P42866)	>	40
CNC(=O)COC(=O)CNC(=O)C(Cc1ccccc1)CN1CC[C@@](C)(c2cccc(O)c2)[C@@H](C)C1 (relative stereo) [Example 88]	opioid receptor (Mus musculus, UniProt P42866)	=	13.5
C[C@H]1CN(CC(Cc2ccccc2)C(=O)NCCCC(N)=O)CC[C@@]1(C)c1cccc(O)c1 (stereo partly drawn) [Example 63, monohydrochloride]	opioid receptor (Mus musculus, UniProt P42866)	=	26
CCOC(=O)CNC(=O)C(CC1CCCCC1)CN1CC[C@@](C)(c2cccc(O)c2)[C@@H](C)C1 (relative stereo) [Example 29, monohydrochloride]	opioid receptor (Mus musculus, UniProt P42866)	=	3.9
C[C@H]1CN(CC(CC2CCCCC2)C(=O)NCC(=O)O)CC[C@@]1(C)c1cccc(O)c1 (relative stereo) [Example 30, monohydrate]	opioid receptor (Mus musculus, UniProt P42866)	>	40
C[C@H]1CN(CC(Cc2ccccc2)C(=O)NCC(=O)OCC(N)=O)CC[C@@]1(C)c1cccc(O)c1 (relative stereo) [Example 87]	opioid receptor (Mus musculus, UniProt P42866)	=	19
C[C@H]1CN(CC(CC2CCCCC2)C(=O)NCCC(=O)O)CC[C@@]1(C)c1cccc(O)c1 (stereo partly drawn) [Example 35, hydrochloride]	opioid receptor (Mus musculus, UniProt P42866)	=	40
CCOC(=O)CNC(=O)C(Cc1ccccc1)CN1CC[C@@](C)(c2cccc(O)c2)[C@@H](C)C1 (stereo partly drawn) [Example 43, hydrochloride]	opioid receptor (Mus musculus, UniProt P42866)	=	1.9
CCOC(=O)CNC(=O)C(CCN1CC[C@@](C)(c2cccc(O)c2)[C@@H](C)C1)c1ccccc1 (relative stereo) [Example 11, monohydrochloride]	opioid receptor (Mus musculus, UniProt P42866)	=	2.4
C[C@H]1CN(CCC(C(=O)NCC(=O)O)C2CCCCC2)CC[C@@]1(C)c1cccc(O)c1 (relative stereo) [Example 27, monohydrate]	opioid receptor (Mus musculus, UniProt P42866)	=	15.3
CCOC(=O)CN(C)C(=O)CNC(=O)C(Cc1ccccc1)CN1CC[C@@](C)(c2cccc(O)c2)[C@@H](C)C1 (relative stereo) [Example 75]	opioid receptor (Mus musculus, UniProt P42866)	=	5.2
CCOC(=O)C(Cc1ccccc1)CN1CC[C@@](C)(c2cccc(OC)c2)[C@@H](C)C1 (single isomer, unassigned) [Example 78B]	opioid receptor (Mus musculus, UniProt P42866)	=	1.6
